- System under test: Caspase-1 (Homo sapiens, UniProt P29466)
- Sequence (P29466 whole entry): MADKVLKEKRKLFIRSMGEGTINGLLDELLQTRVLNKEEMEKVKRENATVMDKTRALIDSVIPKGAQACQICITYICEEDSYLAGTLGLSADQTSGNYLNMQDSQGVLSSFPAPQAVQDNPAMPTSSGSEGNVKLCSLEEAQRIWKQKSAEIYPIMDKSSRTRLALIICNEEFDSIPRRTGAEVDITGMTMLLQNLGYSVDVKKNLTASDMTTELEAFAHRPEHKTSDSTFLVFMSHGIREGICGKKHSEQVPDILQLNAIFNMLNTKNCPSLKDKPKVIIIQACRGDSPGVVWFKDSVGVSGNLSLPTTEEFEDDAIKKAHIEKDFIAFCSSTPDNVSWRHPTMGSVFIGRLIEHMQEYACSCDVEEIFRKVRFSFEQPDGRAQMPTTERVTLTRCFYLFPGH
pKi: −log10 of the molar value. Residues, ends and D or L forms follow the SMILES beside them. *: point of attachment. Cbz = O=C(OCc1ccccc1)*
Observed property: pKi

# Compound, pKi
data = [
    ("CC(C)[C@H](NC(=O)OCc1ccccc1)C(=O)N[C@@H](C)C(=O)N[C@H](C=O)CC(=O)O (Cbz-Val-Ala-Asp-aldehyde)", 8.10),
    ("CC(C)[C@H](NC(=O)[C@H](Cc1ccc(O)cc1)NC(=O)OCc1ccccc1)C(=O)N[C@@H](C)C(=O)N[C@H](C=O)CC(=O)O", 6.74),
    ("CCC(CCCCNC(=O)c1ccc(Nc2cnc3ccccc3n2)cc1)C(=O)N[C@H](C=O)CC(=O)O (stereo not given in full)", 7.80),
    ("O=C[C@H](CC(=O)O)NC(=O)Cc1ccc(CNC(=O)c2ccc(Nc3cnc4ccccc4n3)cc2)s1", 6.92),
    ("O=C[C@H](CC(=O)O)NC(=O)CCCCCC(=O)Nc1ccc(Nc2cnc3ccccc3n2)cc1", 5.68),
    ("O=C[C@H](CC(=O)O)NC(=O)C(CCCCNC(=O)c1ccc(Nc2cnc3ccccc3n2)cc1)c1ccccc1 (stereo not given in full)", 8.30),
    ("Cc1cc(C(=O)NCCCCC(C(=O)N[C@H](C=O)CC(=O)O)c2cccs2)ccc1Nc1cnc2ccccc2n1 (stereo not given in full)", 8.40),
    ("CC(C)[C@H](NC(=O)c1ccc(Nc2cnc3ccccc3n2)cc1)C(=O)N[C@@H](C)C(=O)N[C@H](C=O)CC(=O)O", 8.40),
    ("O=C[C@H](CC(=O)O)NC(=O)c1ccc(CNC(=O)c2ccc(Nc3cnc4ccccc4n3)cc2)cc1", 7.00),
    ("O=C[C@H](CC(=O)O)NC(=O)C(CCCCNC(=O)c1ccc(Nc2cnccn2)cc1)c1cccs1 (stereo not given in full)", 7.00),
]

1: Cc1cc(C(=O)NCCCCCC(=O)N[C@H](C=O)CC(=O)O)ccc1Nc1cnc2ccccc2n1
2: O=C[C@H](CC(=O)O)NC(=O)c1csc(CNC(=O)c2ccc(Nc3cnc4ccccc4n3)cc2)c1
3: O=C[C@H](CC(=O)O)NC(=O)c1ccc(CNC(=O)c2ccc(Nc3cnc4ccccc4n3)cc2)s1
4: O=C[C@H](CC(=O)O)NC(=O)CCCCCNC(=O)c1ccc(Nc2cnc3ccccc3n2)cc1
Sequence the entries by pKi, beginning with the highest number. Give me the labels in the order the question wants.
3, 2, 4, 1
(3: 7.46, 2: 6.92, 4: 6.72, 1: 6.49)
